Data origin, for the record: PubChem BioAssay AID248

The entries below come with measured T/C values attached.
Test system: L1210 leukemia ip in BDF1 mice, survival T/C
Assay Procedure: NCI In Vivo Anticancer Drug Screen. Data for tumor model L1210 Leukemia (intraperitoneal) in B6D2F1 (BDF1) mice
Condition Info: endpoint: mean survival time; dose: 400.0 mg/kg/injection; schedule: Q04DX003 (ip); vehicle: saline; higher = longer survival
Inconclusive results and toxic doses are left out.

For this molecule ( O=C1N(CO)C2C(N1CO)N(CO)C(=O)N2CO (centres undefined) ), measured T/C is 114 % of control

For this molecule ( Cc1ccc(N2C(=O)CC(Sc3ccccc3N)C2=O)cc1 (centres undefined) ), measured T/C is 86 % of control

For this molecule ( "CSc1nc2nc(Cl)c(Cl)nc2[nH]1" ), measured T/C is 108 % of control

For this molecule ( "O=C(NCCO)NCCO" ), measured T/C is 123 % of control

For this molecule ( "Nc1ncc(N)c(N)n1" ), measured T/C is 118 % of control

For this molecule ( "OCCCCCc1ccccc1" ), measured T/C is 90 % of control

For this molecule ( CC(C)=C1C2C=CC1C(C(=O)N(C)C)C2C(=O)N(C)C (centres undefined) ), measured T/C is 100 % of control

For this molecule ( COC1OC(CO)C(O)C([N+](=O)[O-])C1O (centres undefined) ), measured T/C is 105 % of control

For this molecule ( "Nc1nc2c(c(-c3ccc(Cl)cc3)n1)CN(CCC(=O)O)C2=O" ), measured T/C is 98 % of control

For this molecule ( "CCN(CC)CCSc1ccnc2cc(Cl)ccc12" ), measured T/C is 100 % of control

For this molecule ( "COc1ccc2c(c1)N(C)CCCC2=O" ), measured T/C is 87 % of control

---

Tested on: L1210 leukemia ip in BDF1 mice, survival T/C
Assay Procedure: NCI In Vivo Anticancer Drug Screen. Data for tumor model L1210 Leukemia (intraperitoneal) in B6D2F1 (BDF1) mice
Condition Info: endpoint: mean survival time; dose: 100.0 mg/kg/injection; schedule: Q01DX001 (ip); vehicle: saline with Tween-80; higher = longer survival
Method: The antitumor activity of compounds was measured in mice bearing transplantable tumors. Survival or tumor size were measured and the results are expressed as the measurement made in the treated group (T) divided by the measurement made in the vehicle treated control group (C). The tumor model used in this assay is L1210 Leukemia (intraperitoneal) in B6D2F1 (BDF1) mice
Inconclusive results and toxic doses are left out.
Value Type: T/C

Worked examples follow.
CCOC(=O)C(C#N)C(C)CC(C)C (stereo not drawn) = 102 % of control
CCOC(=O)c1nc(SCc2ccccc2)n(Cc2ccccc2)c1C(=O)OCC = 109 % of control
O=C(CCC(=O)c1ccccc1)c1ccccc1 = 100 % of control
O=c1oc2ccc3ccccc3c2c(-c2ccc(O)cc2)c1-c1ccccc1 = 89 % of control
O=C(/C=C/c1ccccc1)NC(=S)Nc1ccccc1C(F)(F)F = 92 % of control
Nc1nc(=S)c2nnn(C3OC(CO)C(O)C3O)c2[nH]1 (stereo not drawn) = 104 % of control

For this molecule ( "CCOC(=O)c1ccc(NC(=O)Nc2ccc(OC)cc2Cl)cc1" ), measured T/C is 96 % of control

For this molecule ( "CC1=C(Cl)CS(=O)(=O)C1" ), measured T/C is 104 % of control

For this molecule ( "O=C1CCN/C(=N\[N+](=O)[O-])N1" ), measured T/C is 101 % of control

For this molecule ( "Oc1cc(-c2ccccc2)c(-c2ccccc2)c(-c2ccccc2)c1-c1ccccc1" ), measured T/C is 100 % of control

For this molecule ( "Cc1c(N=NN(C)C)c(=O)n(-c2ccccc2)n1C" ), measured T/C is 97 % of control

For this molecule ( "CCOC(=O)c1ccc(NCc2cccc([N+](=O)[O-])c2)cc1" ), measured T/C is 103 % of control

For this molecule ( CCCCSC1CC(=O)N(CCCC)C1=O (stereo not drawn) ), measured T/C is 103 % of control

For this molecule ( "CCOC(=O)c1ccc(NC(=O)Nc2ccc(OC)cc2OC)cc1" ), measured T/C is 86 % of control

For this molecule ( "CCCCCCCCCCC(CCCCCCCCCC)CC(C)(C)C" ), measured T/C is 96 % of control

For this molecule ( "COc1ccc([N+](=O)[O-])cc1NS(=O)(=O)c1cccc([N+](=O)[O-])c1" ), measured T/C is 95 % of control

For this molecule ( "Cc1ccc(S(=O)(=O)N/N=C(/c2ccccc2)c2ccsc2C)cc1" ), measured T/C is 98 % of control

For this molecule ( "CCN(CC)C(=O)Oc1cccc(NC(=O)OC)c1" ), measured T/C is 94 % of control

For this molecule ( "O=[N+]([O-])c1ccc(S(=O)(=O)OCc2cccc(OS(=O)(=O)c3ccc([N+](=O)[O-])cc3)c2)cc1" ), measured T/C is 100 % of control
